# System: TK-10 renal
# ASSAY_INFO: NCI-60 one-dose screen, 48 h (100 = growth as untreated, 0 = no growth, -100 = all killed)
# COND: 10 µM unless noted
Compounds without any hit were thinned out: in the full panel of roughly 83,000, 20% have a hit. Activity calls are given as the source filed them. How the source made its calls: active means growth percent below 10; inactive means the rest.
In this section we review reported growth values for a set of compounds.

COMPOUND: CCOC(=O)NCCc1nc2c([nH]1)c(=O)n(C)c(=O)n2C
growth: 100% (inactive)

COMPOUND: Nn1c(SCC(=O)Nc2ccc(Cl)cc2)nnc1-c1cc(F)c(Cl)cc1Cl
growth: 97.6% (inactive)

COMPOUND: O=C1Nc2ccc(Cl)cc2/C1=N/c1nc(-c2ccc(F)cc2)cs1
growth: 59.2% (inactive)

COMPOUND: S=C(Nc1ccc(Cl)cc1)c1ccccn1
growth: 110% (inactive)

COMPOUND: O=C1NC(c2ccc(F)cc2)N=C2C(c3ccccc3)=NOC12 (stereo not given)
growth: 106% (inactive)

COMPOUND: N#CC1(C#N)C2=C(CCCC2)NC(c2c(F)cccc2Cl)C1(C#N)C#N (stereo not given)
growth: 99.8% (inactive)

COMPOUND: Cc1cc(C)nc(NS(=O)(=O)c2ccc(Nc3ccc4c5c(n(CCCN(C)C)c(=O)c4c3)-c3ccccc3C5=O)cc2)n1
growth: 87.9% (inactive)

COMPOUND: COc1ccccc1Nc1nnc(-c2ccc(Cl)cc2)o1
growth: 68.9% (inactive)

COMPOUND: COc1ccc2nc3nc4ccc[nH]c4cc3c2c1
growth: 82.2% (inactive)

COMPOUND: C=C1C(=O)O[C@H]2[C@H]1CC/C(COC(=O)c1cccnc1)=C\CC[C@@]1(C)O[C@@H]21
growth: 63.1% (inactive)

----------
# Test system: OVCAR-4 ovarian
# ASSAY_INFO: NCI-60 one-dose screen, 48 h
# COND: 10 µM unless noted
About 83,000 compounds went through this panel and 20% of them were active in at least one assay; those are over-represented in the sample as a whole. Calls of active or inactive are those of the source. The calls were made as follows: active = growth percent below 10; inactive = the rest.
Labels: class 1 for active, class 0 for inactive

COMPOUND: Cn1nc(C(F)(F)F)c(-c2cc(C(F)(F)F)cc(C(F)(F)F)c2)c1-c1ccc(OCc2ccc(Cl)cc2)cc1O
QUALITATIVE_LABEL: class 0
//
COMPOUND: O=C(Nc1ccc(N=Cc2ccccc2O)cc1)NC1C=c2ccccc2=CC1 (configuration not stated)
QUALITATIVE_LABEL: class 0
//
COMPOUND: COc1cc(/C=C/C(=O)/C=C/c2cc3ccc(Cl)cc3n(Cc3ccccc3)c2=O)ccc1O
QUALITATIVE_LABEL: class 0
//
COMPOUND: O=c1[nH]nc(-c2ccccc2)c2sc(NC(=S)Nc3ccc(Cl)cc3)nc12
QUALITATIVE_LABEL: class 0
//
COMPOUND: COCCOCCOCc1n(Cc2ccc3ccccc3n2)c2ccccc2[n+]1Cc1ccc2ccccc2n1
QUALITATIVE_LABEL: class 0
//
COMPOUND: CCCCn1c(=O)c(/C=C/C(=O)/C=C/c2ccc(O)c(OC)c2)cc2ccc(Cl)cc21
QUALITATIVE_LABEL: class 0
//
COMPOUND: C[C@H]1[C@H](C)CC[C@]2(C(=O)OCCCC[P+](c3ccccc3)(c3ccccc3)c3ccccc3)CC[C@]3(C)C(=CC[C@@H]4[C@@]5(C)CC[C@H](OC(=O)C(Cl)Cl)C(C)(C)[C@@H]5CC[C@]43C)[C@H]12
QUALITATIVE_LABEL: class 1
//
COMPOUND: Cc1ccccc1NC(=O)c1sc2nc(C)c(C(C)O)cc2c1N (configuration not stated)
QUALITATIVE_LABEL: class 0
//
COMPOUND: O=C1NN(c2ccccc2)C(c2ccc3c(c2)OCO3)N2CCC[C@@H]12 (some centres not stated)
QUALITATIVE_LABEL: class 0
//
COMPOUND: O=C1CCc2ccccc2N1
QUALITATIVE_LABEL: class 0
//
COMPOUND: Cc1nc2sc(C(=O)Nc3cccc(Cl)c3C)c(N)c2cc1C(C)O (configuration not stated)
QUALITATIVE_LABEL: class 0
//
COMPOUND: COc1ccccc1C(=O)/C=C/c1cc2cccc(OC)c2[nH]c1=O
QUALITATIVE_LABEL: class 0
//
COMPOUND: CN(CCC#N)C(=O)Nc1ccccc1
QUALITATIVE_LABEL: class 0
//
COMPOUND: COc1ccc(-c2[nH]c3ccc(OC)cc3c2C=C(C#N)C#N)cc1
QUALITATIVE_LABEL: class 0
//
COMPOUND: O=C(CN1N=C(c2ccc(F)cc2)CCC1=O)Nc1nccs1
QUALITATIVE_LABEL: class 0
//
COMPOUND: O=C(CCc1nnco1)c1nc2ccc([N+](=O)[O-])cc2[nH]1
QUALITATIVE_LABEL: class 0
//
COMPOUND: O=C(O)c1cn(C2CC2)c2cc(N3CCN(C(=O)CSc4nnc(-c5ccc(Cl)cc5)n4-c4ccccc4)CC3)c(F)cc2c1=O
QUALITATIVE_LABEL: class 0
//
COMPOUND: S=C(Nc1ccc(Cl)cc1)c1ccccn1
QUALITATIVE_LABEL: class 0
//
COMPOUND: CCOC(=O)CC[C@H](NC(=O)c1ccc(NC)c2ccccc12)C(=O)OCC
QUALITATIVE_LABEL: class 0
//
COMPOUND: COc1ccc2nc(-c3ccc(OC)c(OC)c3)cc(-c3nnc(SCC(=O)Nc4ccc(C(C)=O)cc4)o3)c2c1
QUALITATIVE_LABEL: class 0
//
COMPOUND: Nc1ccccc1NS(=O)(=O)c1ccc(Cl)cc1
QUALITATIVE_LABEL: class 0
//
COMPOUND: Nc1cccc(C(=O)Nc2ccc3c(O)c(N=Nc4ccc(N=Nc5ccc(S(=O)(=O)O)cc5)cc4)c(S(=O)(=O)O)cc3c2)c1
QUALITATIVE_LABEL: class 0
//
COMPOUND: CSc1nc(-c2cccs2)c2c(N)[nH]nc2n1
QUALITATIVE_LABEL: class 0
//
COMPOUND: O=C(Nc1cc(=O)[nH]c(=O)[nH]1)C(Cl)Cl
QUALITATIVE_LABEL: class 0
//
COMPOUND: COc1ccc(-c2cc(-c3nnc(SCC(=O)Nc4ccc(C(C)=O)cc4)o3)c3ccccc3n2)cc1
QUALITATIVE_LABEL: class 1
//
COMPOUND: Cc1cnc(SCc2ccc(Cl)cc2Cl)nc1Nc1ccc(Cl)c(Cl)c1
QUALITATIVE_LABEL: class 0
//
COMPOUND: CC(C)(C)CC(C)(C)Cc1ccc(OCCOCC[N+](C)(C)Cc2ccccc2)cc1
QUALITATIVE_LABEL: class 1
//
COMPOUND: COc1ccc2c(c1)/C(=C1\S/C(=N/c3nnc(C)s3)NC1=O)C(=O)N2Cc1ccc(Cl)cc1
QUALITATIVE_LABEL: class 0
//
COMPOUND: CC[C@H](Nc1ncnc2nc[nH]c12)c1nc2cccc(CC(=O)c3ccc(C(=O)NO)cc3)c2c(=O)n1-c1ccccc1
QUALITATIVE_LABEL: class 0
//
COMPOUND: COc1ccc2nc(-c3ccc(Cl)cc3)cc(-c3nnc(SC/C(=N/O)c4ccccc4)o3)c2c1
QUALITATIVE_LABEL: class 0
//
COMPOUND: Cn1cc(-c2ccc3c(c2)ncn3-c2ccc(CC(=O)Nc3cc(C(C)(C)C)on3)cc2)cn1
QUALITATIVE_LABEL: class 0
//
COMPOUND: C=C(C)[C@@H]1CC[C@]2(C(=O)OCCOCCOCC[P+](c3ccccc3)(c3ccccc3)c3ccccc3)CC[C@]3(C)[C@H](CC[C@@H]4[C@@]5(C)CC[C@H](C)C(C)(C)[C@@H]5CC[C@]43C)[C@@H]12
QUALITATIVE_LABEL: class 1
//
COMPOUND: COC(=O)CCc1cc(O)c2c(c1)[C@@H](C(=O)OC)[C@H](c1ccc(O)c(O)c1)O2
QUALITATIVE_LABEL: class 0
//
COMPOUND: OCCNc1nc(NCCO)nc(Nc2ccc(C3=NN(c4cc(Cl)cc(Cl)c4)C(c4ccccc4)C3)cc2)n1 (configuration not stated)
QUALITATIVE_LABEL: class 0
//
COMPOUND: C1=CC2=CC=C3C=CC=C4C(c5nc6c7ccccc7c7ccccc7c6[nH]5)=CC(=C1)C2C34 (configuration not stated)
QUALITATIVE_LABEL: class 0
//
COMPOUND: CCCCCCCc1n(Cc2ccc3ccccc3c2)c2ccccc2[n+]1Cc1ccc2ccccc2c1
QUALITATIVE_LABEL: class 1
//
COMPOUND: COc1cc(C2=NN(C=O)C(c3cccc(Nc4ccnc5cc(C(F)(F)F)ccc45)c3)C2)cc(OC)c1OC (configuration not stated)
QUALITATIVE_LABEL: class 0

----------
# Test system: PC-3 prostate
# ASSAY_INFO: NCI-60 one-dose screen, 48 h
# COND: 10 µM unless noted
The panel holds about 83,000 compounds, 20% with a hit somewhere; the sample as a whole holds those more often. Active and inactive are the calls of the source. Rule for the calls: active = growth percent below 10; inactive = the rest.
Labels: True for active, False for inactive

COMPOUND_STRING: O=C1c2ccccc2C(=O)c2c1oc1c2c(=O)[nH]c2ccccc21
QUALITATIVE_LABEL: False
//
COMPOUND_STRING: NCCCn1c2c(c3cc(-c4ccn[nH]4)ccc3c1=O)C(=O)c1ccccc1-2
QUALITATIVE_LABEL: False
//
COMPOUND_STRING: O=C(CCCCCCCCC(=O)Nc1cccc(C2=NCCN2)c1)Nc1cccc(C2=NCCN2)c1
QUALITATIVE_LABEL: False
//
COMPOUND_STRING: NC(=O)C(O)(c1ccccc1)c1ccccc1
QUALITATIVE_LABEL: False
//
COMPOUND_STRING: C[C@H]1[C@H](C)CC[C@]2(C(=O)OCCCC[P+](c3ccccc3)(c3ccccc3)c3ccccc3)CC[C@]3(C)C(=CC[C@@H]4[C@@]5(C)CC[C@H](OC(=O)C(Cl)Cl)C(C)(C)[C@@H]5CC[C@]43C)[C@H]12
QUALITATIVE_LABEL: True
